Biological target: T1, PUF4 RNA-binding domain (Saccharomyces cerevisiae, UniProt P25339 537-888)
T1 sequence: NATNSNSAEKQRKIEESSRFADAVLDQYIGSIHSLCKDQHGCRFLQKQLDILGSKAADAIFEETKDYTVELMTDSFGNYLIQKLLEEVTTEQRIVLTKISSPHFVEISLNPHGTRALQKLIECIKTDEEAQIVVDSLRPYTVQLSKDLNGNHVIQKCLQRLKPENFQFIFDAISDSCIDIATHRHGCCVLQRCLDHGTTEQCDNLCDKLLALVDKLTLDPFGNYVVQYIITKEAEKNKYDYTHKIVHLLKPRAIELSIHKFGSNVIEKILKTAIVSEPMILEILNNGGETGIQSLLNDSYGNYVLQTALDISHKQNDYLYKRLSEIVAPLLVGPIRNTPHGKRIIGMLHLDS
Experiment: Mg; RNA-MaP; 20 mM Na-HEPES pH 7.4, 30 mM KOAc, 0.75 mM MgCl2, 0.1% Tween-20, 5% glycerol, 0.1 mg/mL BSA, 2 mM DTT; 25 C; 0.0125-409.6 nM protein
Details: tags: N-His6-TEV cleaved; C-SNAP kept, Cy3B-labelled; label: tethered on chip by stalled RNA polymerase
Cut-off 200 nM on Kd: below means true (1), at or above means false (0).

QUERY: Item Id_ii_S4_P4E.3_K4.2_C4.2_[C-2T]_H4.2_A4.1_F4.1_T4.2_[G10C]_[T11C] (ssRNA) RNA: UUUGACAACUGAUCGUUCUUUCUUUUAUAUAUUACCUUCUUUCUCGAUCAGUUGUCUUU : Kd beneath 200 nM, strictly?
RESULT: true (1)

QUERY: Item UCUCUUUGUAUAUUACUCUUCUCUU (ssRNA) [Ie_S1_P4E.1_K4.1_C4.1_H4.1_A4.1_F4.1_[+9CTCT]_T4.1] : Kd beneath 200 nM, strictly?
RESULT: true (1)

QUERY: Item UCUCUUCGUAAUAUUAUCUCUU (ssRNA) [Ib_S1_P5E.1_K5.1_C5.1_H5.1_[T1C]_A5.1_[T5A]_F5.1_T5.1] : Kd beneath 200 nM, strictly?
RESULT: false (0)

QUERY: Item Id_ii_S4_P5E.2_K5.1_C5.2_[T-1A]_H5.1_A5.1_F5.1_T5.2_[T11A]_[A12T] (ssRNA) RNA: UUUGACAACUGAUCGUUCUUUCUCAUGUAUUAUUAAUUUCUUUCUCGAUCAGUUGUCUUU : Kd beneath 200 nM, strictly?
RESULT: true (1)

QUERY: Item UCUCUUUAUAUUAUCAUCUCUU (ssRNA) [Ib_S1_P5E.1_K5.1_C5.1_H5.1_[G2A]_A5.1_F5.1_[T9C]_T5.1] : Kd beneath 200 nM, strictly?
RESULT: false (0)

QUERY: Item UCUCUUUGUAAUUUCUCUCUU (ssRNA) [Ic_S1_P4E.1_K4.1_C4.1_H4.1_A4.1_[T5A]_[A6T]_F4.1_[A9C]_T4.1] : Kd beneath 200 nM, strictly?
RESULT: true (1)

QUERY: Item ACAAACUGCUUAUAACAAAC (ssRNA) [Ib_S3_P3E.1_K3.1_C3.1_H3.1_[T3C]_[A4T]_A3.1_F3.1_T3.1] : Kd beneath 200 nM, strictly?
RESULT: false (0)

QUERY: Item Ic_S2_P5E.1_K5.1_C5.1_H5.1_A5.1_[T5C]_[A7C]_F5.1_[T9C]_[A10T]_T5.1 (ssRNA) RNA: UUUGAUUAAUAUGAUAUCGUUCUUUCUUGUACUCUCUUUCUUUCUCGAUAUCAUAUUAAUCUUU : Kd beneath 200 nM, strictly?
RESULT: true (1)

Source listed as paper PMC9352680.
